AUC reference
test_summary: Determination of compound Cmax and AUC after oral gavage (plasma LC-MS/MS)
Format: in vivo, Sprague-Dawley rats
assay_context: Sprague-Dawley, rat, plasma, po, Structure (I) examples, Table 15, actual oral dose 3-15 mg/kg, plasma 0.5-4 h

Here's what some known entries look like.
CCN(CC)c1ccc(NC(=O)c2cccc(CSc3cccc(CC(=O)N(C)CCOCCOCCOCCC(=O)O)c3)c2)c(-c2cc(C(=O)NCc3cccc(C(F)(F)F)c3)ccn2)c1 [Example 144]    < 10 ng·h/mL
COCCOCCOCCOCCOCCOCCOCCOCCNC(=O)CCOCCOCCOCCOCCSCc1cccc(C(=O)Nc2ccc(N3CCCCC3)cc2-c2cc(C(=O)NCc3cccc(C(F)(F)F)c3)ccn2)c1 [Example 148]    < 10 ng·h/mL
CCN(CC)c1ccc(NC(=O)c2cccc(CSCCOCCOCCOCCOCCOCCOCCOCCOC)c2)c(-c2cc(C(=O)NCc3cccc(C(F)(F)F)c3)ccn2)c1 [Example 265]    < 30 ng·h/mL
O=C(O)CCOCCOCCOCCNC(=O)c1cccc(SCc2cccc(C(=O)Nc3ccc(Cl)cc3-c3cc(C(=O)NCc4cccc(C(F)(F)F)c4)ccn3)c2)c1 [Example 264]    < 10 ng·h/mL
CCN(CC)c1ccc(NC(=O)c2cccc(C(=O)N(C)CCN3CCN(CCOCCOCCOCCOCCOCCOCCOC)C(=O)C3)c2)c(-c2cc(C(=O)N[C@H]3CCCc4ccccc43)ccn2)c1 [Example 327]    < 10 ng·h/mL

## Task # query: AUC of entry O=C(O)CCOCCOCCOCCNC(=O)Cc1cccc(SCc2cccc(C(=O)Nc3ccc(N4CCCCC4)cc3-c3cc(C(=O)NCc4cccc(C(F)(F)F)c4)ccn3)c2)c1 [Example 137]
## Result < 10 ng·h/mL

## Task // query: CCN(CC)c1ccc(NC(=O)c2cccc(CCCOCCOCCOCCOCCNS(=O)(=O)c3ccc(CCC(=O)O)cc3)c2)c(-c2cc(C(=O)NCc3cccc(C(F)(F)F)c3)ccn2)c1 [Example 294]
## Result > 50 ng·h/mL

## Task // query: CCN(CC)c1ccc(NC(=O)c2cccc(CSCCOCCOCCOCCOCCOCCOCCOCCOC)c2)c(-c2cc(C(=O)N[C@H]3CCCc4ccccc43)ccn2)c1 [Example 286]
## Result < 10 ng·h/mL

## Task // query: CCN(CC)c1ccc(NC(=O)c2cccc(CCCOCCOCCOCCOCCC(=O)NC(CO)(CO)CO)c2)c(-c2cc(C(=O)NCc3cccc(C(F)(F)F)c3)ccn2)c1 [Example 281]
## Result < 10 ng·h/mL

* * *

test_summary: Determination of compound Cmax and AUC after oral gavage (plasma LC-MS/MS)
Format: in vivo, Sprague-Dawley rats
assay_context: Sprague-Dawley, rat, plasma, po, Structure (I) examples, Table 15, actual oral dose 3-15 mg/kg, plasma 0.5-4 h
parameter_measured: AUC

Here's what some known entries look like.
CCCN(CCC)c1ccc(NC(=O)c2cccc(COCCOCCOCCOCCOCCOCCOCCOCCOC)c2)c(-c2cc(C(=O)NCc3cccc(C(F)(F)F)c3)ccn2)c1    < 30 ng·h/mL
O=C(CCOCCOCCOCCOCCSCc1cccc(C(=O)Nc2ccc(N3CCCCC3)cc2-c2cc(C(=O)NCc3cccc(C(F)(F)F)c3)ccn2)c1)NCCOCCOCCOCCOCCOCCOCCOCCO    < 10 ng·h/mL
CC(C)(SCc1cccc(C(=O)Nc2ccc(N3CCCCC3)cc2-c2cc(C(=O)NCc3cccc(C(F)(F)F)c3)ccn2)c1)C(=O)O    > 50 ng·h/mL

## Task # query: AUC of entry CCN(CC)c1ccc(NC(=O)c2cccc(CCCOCCOCCOCCOCCC(=O)O)c2)c(-c2cc(C(=O)NCc3cccc(C(F)(F)F)c3)ccn2)c1
## Result < 10 ng·h/mL

## Task // query: O=C(O)CCOCCOCCOCCOCCCc1cccc(C(=O)Nc2ccc(N3CCCCC3)cc2-c2cc(C(=O)N[C@H]3CCCc4ccccc43)ccn2)c1
## Result < 30 ng·h/mL

## Task // query: O=C(NCc1cccc(C(F)(F)F)c1)c1ccnc(-c2cc(N3CCCCC3)ccc2NC(=O)c2cccc(CSCCOCCOCCOCCOCCC(=O)N3CCN(CCOCCO)CC3)c2)c1
## Result < 10 ng·h/mL

## Task // query: COCCNC(=O)[C@H]1CCCN(C(=O)c2cccc(C(=O)Nc3ccc(N4CCCCC4)cc3-c3cc(C(=O)N[C@H]4CCCc5ccccc54)ccn3)c2)C1
## Result < 10 ng·h/mL

* * *

test_summary: Determination of compound Cmax and AUC after oral gavage (plasma LC-MS/MS)
Type: in vivo, Sprague-Dawley rats
assay_context: Sprague-Dawley, rat, plasma, po, Structure (I) examples, Table 15, actual oral dose 3-15 mg/kg, plasma 0.5-4 h
Method: Sprague-Dawley rats were orally gavaged with test article at a nominal dose of 2.5 or 10 mg/kg and blood was collected at 0.5, 1, 2 and 4 h. Blood samples were processed to plasma using K2EDTA as an anticoaglulant. […] Supernatants were analyzed by LC-MS/MS and compound concentrations were determined by interpolation from a standard curve prepared in plasma. All compounds were orally dosed at the dosage shown, and pharmacokinetic parameters determined. […]
parameter_measured: Cmax

Here's what some known entries look like.
CCN(CC)c1ccc(NC(=O)c2cccc(CSCCOCCOCCOCCOCCC(=O)N(CCO)CCO)c2)c(-c2cc(C(=O)N[C@H]3CCCc4ccccc43)ccn2)c1    < 10 ng/mL
CCN(CC)c1ccc(NC(=O)c2cccc(C(=O)N(C)CCOCCOCCOCCC(=O)O)c2)c(-c2cc(C(=O)NCc3cccc(C(F)(F)F)c3)ccn2)c1    < 10 ng/mL
CN(CCCN1CCOCC1)C(=O)c1cccc(C(=O)Nc2ccc(N3CCCCC3)cc2-c2cc(C(=O)N[C@H]3CCCc4ccccc43)ccn2)c1    < 10 ng/mL
O=C(NCc1cccc(C(F)(F)F)c1)c1ccnc(-c2cc(N3CCCCC3)ccc2NC(=O)c2cccc(CSc3ccc(C(=O)O)c(Br)c3)c2)c1    < 30 ng/mL
CCN(CC)CCN(C)C(=O)CCOCCOCCOCCOCCSCc1cccc(C(=O)Nc2ccc(N3CCCCC3)cc2-c2cc(C(=O)NCc3cccc(C(F)(F)F)c3)ccn2)c1    < 10 ng/mL
O=C(CCOCCOCCOCCOCCSCc1cccc(C(=O)Nc2ccc(N3CCCCC3)cc2-c2cc(C(=O)NCc3cccc(C(F)(F)F)c3)ccn2)c1)NCCN1CCOCC1    < 10 ng/mL
O=C(O)CCOCCOCCOCCNC(=O)c1cccc2c1ccn2Cc1cccc(C(=O)Nc2ccc(N3CCCCC3)cc2-c2cc(C(=O)N[C@H]3CCCc4ccccc43)ccn2)c1    < 30 ng/mL
COCCN(C)C(=O)N1CCN(CCN(C)C(=O)c2cccc(C(=O)Nc3ccc(N4CCCCC4)cc3-c3cc(C(=O)NCc4cccc(C(F)(F)F)c4)ccn3)c2)CC1    < 10 ng/mL

## Task # query: Cmax of entry CCN(CC)c1ccc(NC(=O)c2cccc(CSCCOCCOCCOCCOCCC(=O)NCCOCCOCCOCCOCCOCCOCCOCCOC)c2)c(-c2cc(C(=O)NCc3cccc(C(F)(F)F)c3)ccn2)c1
## Result < 10 ng/mL

## Task // query: O=C(O)CCOCCOCCOCCNC(=O)Cc1cccc(SCc2cccc(C(=O)Nc3ccc(N4CCCCC4)cc3-c3cc(C(=O)NCc4cccc(C(F)(F)F)c4)ccn3)c2)c1
## Result < 10 ng/mL

## Task // query: CCCN(CCC)c1ccc(NC(=O)c2cccc(COCCOCCOCCOCCOCCOCCOCCOCCOC)c2)c(-c2cc(C(=O)NCc3cccc(C(F)(F)F)c3)ccn2)c1
## Result < 30 ng/mL

## Task // query: O=C(O)CCOCCOCCOCCNC(=O)c1cccc(SCc2cccc(C(=O)Nc3ccc(Cl)cc3-c3cc(C(=O)NCc4cccc(C(F)(F)F)c4)ccn3)c2)c1
## Result < 10 ng/mL

## Task // query: CN(CCN1CCNC(=O)C1)C(=O)c1cccc(C(=O)Nc2ccc(N3CCCCC3)cc2-c2cc(C(=O)N[C@H]3CCCc4ccccc43)ccn2)c1
## Result < 10 ng/mL

## Task // query: CC(C)(SCc1cccc(C(=O)Nc2ccc(N3CCCCC3)cc2-c2cc(C(=O)NCc3cccc(C(F)(F)F)c3)ccn2)c1)C(=O)O
## Result < 50 ng/mL

* * *

IC50 reference
target_entity: rat NaP2b (SLC34A2) (Rattus norvegicus)
Construct: host or cells: HEK293
Sequence (Q9JJ09 1-695): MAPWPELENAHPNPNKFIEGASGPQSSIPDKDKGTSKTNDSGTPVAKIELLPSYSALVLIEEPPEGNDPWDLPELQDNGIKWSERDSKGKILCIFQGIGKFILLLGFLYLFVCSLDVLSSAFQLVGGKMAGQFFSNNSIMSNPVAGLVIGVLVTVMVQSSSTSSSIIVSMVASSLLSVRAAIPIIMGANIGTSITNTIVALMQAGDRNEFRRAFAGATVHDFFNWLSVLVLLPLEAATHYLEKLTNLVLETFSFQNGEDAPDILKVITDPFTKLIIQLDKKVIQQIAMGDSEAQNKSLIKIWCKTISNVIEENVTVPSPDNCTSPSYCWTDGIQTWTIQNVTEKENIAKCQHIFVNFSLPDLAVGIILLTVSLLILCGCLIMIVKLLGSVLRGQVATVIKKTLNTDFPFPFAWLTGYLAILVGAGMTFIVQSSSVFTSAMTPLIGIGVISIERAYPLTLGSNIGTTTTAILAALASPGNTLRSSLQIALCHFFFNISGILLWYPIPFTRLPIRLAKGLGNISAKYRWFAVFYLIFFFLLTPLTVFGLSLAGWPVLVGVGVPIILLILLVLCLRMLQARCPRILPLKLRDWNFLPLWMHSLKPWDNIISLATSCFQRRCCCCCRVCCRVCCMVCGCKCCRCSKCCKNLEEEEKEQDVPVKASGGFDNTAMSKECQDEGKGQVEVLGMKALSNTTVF
test_summary: NaP2b-mediated Pi transport (33P uptake) in transfected HEK293 cells, rat NaP2b
Type: cell-based
assay_context: Structure (V) examples, Table 2; rat NaP2b, HEK293; read-out: pIC50 Range (converted)

Here's what some known entries look like.
O=C(CCSCc1cccc(C(=O)Nc2ccc(N3CCCCC3)cc2C(=O)N/N=C/c2ccc(Cl)c(C(F)(F)F)c2)c1)Nc1ccc(B(O)O)cc1    100 to 794 nM
[N-]=[N+]=NCCOCCOCCOCCNC(=O)C1CCN(Cc2cccc(C(=O)Nc3ccc(N4CCCCC4)cc3C(=O)N/N=C/c3ccc(Cl)c(C(F)(F)F)c3)c2)CC1    100 to 794 nM

## Task # query: IC50 of entry COCCNC(=O)CC[S+]([O-])Cc1cccc(C(=O)Nc2ccc(N3CCCCC3)cc2C(=O)N/N=C/c2ccc(Cl)c(C(F)(F)F)c2)c1 (stereo not drawn)
## Result 100 to 794 nM

## Task // query: NCc1cn(Cc2cccc(C(=O)Nc3ccc(N4CCCCC4)cc3C(=O)N/N=C/c3ccc(Cl)c(C(F)(F)F)c3)c2)nn1
## Result 1000 to 7940 nM

## Task // query: O=C(Nc1ccc(N2CCCCC2)cc1C(=O)N/N=C/c1ccc(Cl)c(C(F)(F)F)c1)c1cccc(Cc2nc(CCO)cs2)c1
## Result 100 to 794 nM

## Task // query: CC(=O)N[C@@H](CCCCNC(=O)CCSCc1cccc(C(=O)Nc2ccc(N3CCCCC3)cc2C(=O)N/N=C/c2ccc(Cl)c(C(F)(F)F)c2)c1)C(=O)O
## Result 1000 to 7940 nM

## Task // query: O=C(Nc1ccc(Cl)cc1C(=O)N/N=C/c1ccc(Cl)c(C(F)(F)F)c1)c1cccc(Cn2cc(CCO)nn2)c1
## Result 10 to 79.4 nM

## Task // query: [N-]=[N+]=NCCOCCOCCOCCNC(=O)CCSCc1cccc(C(=O)Nc2ccc(N3CCCCC3)cc2C(=O)N/N=C/c2ccc(Cl)c(C(F)(F)F)c2)c1
## Result 100 to 794 nM

## Task // query: O=C(CCOCCOCCOCCOCCOCCOCCOCCOCCSCc1cccc(C(=O)Nc2ccc(N3CCCCC3)cc2C(=O)N/N=C/c2ccc(Cl)c(C(F)(F)F)c2)c1)N[C@H]1C(O)O[C@H](CO)[C@@H](O)[C@@H]1O (stereo partly drawn)
## Result 10000 to 100000 nM
